assay: blockers of ER-stress CHOP reporter expression – cell-based, unfolded protein response, luciferase reporter, primary screen (AID 2732); details: CHO-K1 CHOP-promoter luciferase, tunicamycin-induced, 15-18 h; at 10 µM;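 also: 0% = tunicamycin plus vehicle and 100% = wells without tunicamycin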
About 8,200 (3.7%) of roughly 220,000 compounds were called active.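 The calls were made as follows: active = compounds that reduced the stress-induced luciferase reporter signal by more than about 70% of percent inhibition (limit read from the data); inactive = the rest.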 The full list was thinned out, with actives kept by preference.
Labels: label 1 = active, label 0 = inactive

compound=Cc1nnc(SCC(=O)N/N=C/c2cn(-c3ccccc3)nc2-c2ccc(F)cc2)n1-c1ccccc1 group_label="label 1"
compound=CCC(=O)Nc1ccc2nc(C)n(Cc3ccccc3Cl)c(=O)c2c1 group_label="label 0"
compound=O=C1NC[C@@H](Cc2ccc(O)cc2)N(CCc2cccc(F)c2)C1=O group_label="label 0"
compound=Cc1ccc(-n2ncc3c(=O)n(-c4ccc(C)c(C)c4)c(-c4ccco4)nc32)cc1 group_label="label 0"
compound="S=C(NNC(=S)NC1CC2CCC1C2)NC1CC2C=CC1C2 (stereo not given)" group_label="label 0"
compound=Cc1nnc(SCc2ccc(C(=O)c3ccc(Cl)cc3)o2)n1-c1ccccc1 group_label="label 0"
compound=O=C(O)c1ccc(/C=N/Nc2nc(N3CCCCC3)nc(N3CCCCC3)n2)cc1 group_label="label 0"
compound=N=c1c2c(-c3ccccc3)c(-c3ccccc3)oc2ncn1Cc1ccco1 group_label="label 1"
compound=Cc1[nH]n(-c2ccc(Cl)cc2)c(=O)c1/C=N/n1c(C)nc2ccccc2c1=O group_label="label 0"
compound=CC(=O)c1ccc(S(=O)(=O)N2CCN(C(=O)/C=C/c3ccc4ccccc4n3)CC2)cc1 group_label="label 0"
compound=Cn1cc(Cl)c(C(=O)NNC(=S)Nc2cccc(Cl)c2)n1 group_label="label 0"
compound=CCOC(=O)c1c(C)nn(-c2ncccc2NC(=O)CCC(=O)O)c1C group_label="label 0"
compound=COc1ccc(-c2oc3ncn(Cc4ccco4)c(=N)c3c2-c2ccc(OC)cc2)cc1 group_label="label 0"
compound="Cn1c(=N)n(CC(O)c2cccs2)c2ccccc21 (stereo not given)" group_label="label 0"
compound=Cc1nn(-c2ccccc2)c(=O)c2noc(C)c12 group_label="label 0"
compound=COc1ccc(OC)c(/C=N/NC(=O)CSc2nnc(C)n2-c2ccccc2)c1 group_label="label 0"
compound=COc1cc(CN(C)Cc2nc3cc(C(F)(F)F)ccc3c(=O)[nH]2)ccc1OC(F)F group_label="label 0"
compound=Brc1ccc2c(c1)[C@H]1OCC[C@H]1[C@@H](c1cccs1)N2 group_label="label 0"
compound="Cc1cc(NC(=O)CCC(=O)N(c2cccc(F)c2)C(C(=O)NC2CCCC2)c2ccncc2)no1 (stereo not given)" group_label="label 0"
compound="Cn1c(=N)n(CC(O)c2ccccc2)c2ccccc21 (stereo not given)" group_label="label 0"
compound="Fc1ccccc1C(c1nnnn1Cc1ccc2c(c1)OCO2)N1CCN(Cc2ccccc2)CC1 (stereo not given)" group_label="label 1"
compound="CC(Oc1ccc(Cl)cc1)C(=O)OCC(=O)Nc1ncc(Cl)cc1Cl (stereo not given)" group_label="label 0"
compound="CC(CC(=O)Nc1cc(C(F)(F)F)ccc1Cl)c1ccccc1 (stereo not given)" group_label="label 0"
compound=O=c1c(-c2ccccc2)coc2c(CN3CCOCC3)c(O)ccc12 group_label="label 0"
compound=CC(=O)Nc1ccc(CC#N)cc1 group_label="label 0"
compound=Cc1cc(NC(=O)/C=C/C(=O)N(CC(=O)NC2CCCC2)c2ccc(F)cc2)no1 group_label="label 0"
compound=Cc1cc(N2CCN(c3ccc(F)cc3)CC2)n2ncnc2n1 group_label="label 0"
compound="N=c1n(Cc2ccc(Cl)cc2)c2ccccc2n1CC(O)c1ccco1 (stereo not given)" group_label="label 1"
compound=CC(C)=CCc1c(O)c(CC=C(C)C)c2occ(-c3ccc(O)cc3)c(=O)c2c1O group_label="label 1"
compound=O=C(COc1ccccc1F)NC1CC1 group_label="label 0"
compound=COc1cccc(Nc2nnc(SCC(=O)N3CC(=O)Nc4ccccc43)s2)c1 group_label="label 0"
compound="CC(C)(C)n1nnnc1C(c1ccc(F)cc1)N1CCN(Cc2ccc3c(c2)OCO3)CC1 (stereo not given)" group_label="label 0"
compound=Cc1cccc(OCc2nnc(SCn3nnc4ccccc4c3=O)o2)c1 group_label="label 0"
compound=Cc1nnc(SCc2cc(=O)[nH]c(N3CCN(Cc4ccccc4)CC3)n2)s1 group_label="label 0"
compound=Cc1ccc(-n2c(SCC(=O)Nc3ncc(Cl)cc3Cl)nc3ccccc32)cc1 group_label="label 0"
compound=Cc1ccc(SCCC(=O)OCC(=O)Nc2ncc(Cl)cc2Cl)cc1 group_label="label 1"
compound=CCOC(=O)c1[nH]cnc1C(=O)Nc1ccccc1C group_label="label 0"
compound=O=C(COc1cc(Cl)c(Cl)cc1Cl)NCCc1ccccn1 group_label="label 0"
compound=CC(C)n1c(CN2CCN(Cc3ccccc3)CC2)nc2ccccc21 group_label="label 0"
compound=C/C(=N/NC(=O)c1ccn(C)n1)c1ccncc1 group_label="label 0"
